Tested on: ryegrass, Italian (Italian ryegrass, Lolium multiflorum)
Assay: Test A preemergence
Assay type: in vivo
Details: Lolium multiflorum, pre-emergence, 240 h, 500 g ai/ha, Preemergence, visual injury vs untreated controls after approximately 10 d; read-out: Ryegrass, Italian plant response rating (0 to 100 scale where 0 is no effect and 100 is complete control)
I'd appreciate it if you could supply pest or weed control at 500 g/ha values for the items below.
Numbers only; they are read as %.

Specify reported pest or weed control at 500 g/ha for the compound shown: O=C1NCC(c2cccc(I)c2)C1C(=O)Nc1ccccc1F (stereo not shown)
30

Could you please provide reported pest or weed control at 500 g/ha for `CN1C[C@H](c2cc(F)cc(F)c2)[C@@H](C(=O)Nc2ncc(C(F)(F)F)cc2F)C1=O` ? Thanks!
0

Provide only the value of recorded pest or weed control at 500 g/ha for `CN1C[C@H](c2cc(F)c(C(F)(F)F)c(F)c2)[C@@H](C(=O)Nc2cccc(F)c2F)C1=O`
70

Identify measured pest or weed control at 500 g/ha corresponding to CN1C[C@H](c2ccc(C#N)cc2)[C@@H](C(=O)Nc2cccc(F)c2F)C1=O (racemic)
0

Return pest or weed control at 500 g/ha (reported value) for this compound: `COc1c(F)ccc([C@H]2CNC(=O)[C@@H]2C(=O)Nc2cccc(F)c2F)c1Cl`
30

Please report the measured pest or weed control at 500 g/ha for `Cc1c(F)ccc([C@H]2CN(C)C(=O)[C@@H]2C(=O)Nc2ccccc2S(C)(=O)=O)c1F`
60

Provide pest or weed control at 500 g/ha value for the following compound: `Cc1cc(C)cc([C@H]2CN(C)C(=O)[C@@H]2C(=O)Nc2ccccc2C(F)(F)F)c1`
50

Please list pest or weed control at 500 g/ha recorded for the compound `COc1cc([C@H]2CN(C)C(=O)[C@@H]2C(=O)Nc2ccccc2SC)cc(C(F)(F)F)c1`
60

Specify pest or weed control at 500 g/ha for `CN1C[C@H](c2cc(F)cc(F)c2)[C@@H](C(=O)Nc2ccccc2[S@@+](C)[O-])C1=O` and stop.
40

Tell us which pest or weed control at 500 g/ha value is on record for `Cc1c(F)cccc1NC(=O)[C@H]1C(=O)N(C)C[C@@H]1c1cc(F)c(F)c(F)c1`
60
